All figures here come from ChEMBL document CHEMBL5058577.

Consider the following compounds and their measured Population Mitochondria Different-Phenotype (%) readings.
# System: HEK-293T
# protocol: Multiplex assay against HEK293T
# Assay type: toxicity, cell-based
# settings: human, 24 h, 10 µM, compound concentration 10 uM, replicate 1
test_readout: Population Mitochondria Different-Phenotype (%)

{"compound": "Cc1sc2c(c1C)C(c1ccc(Cl)cc1)=N[C@@H](CC(=O)NCCCCCCCCNC(=O)COc1cccc3c1C(=O)N(C1CCC(=O)NC1=O)C3=O)c1nnc(C)n1-2 (stereo partly specified)", "units_text": "%", "endpoint_result": 64}
{"compound": "NCCc1cn(S(=O)(=O)c2c(Cl)nc3sccn23)c2ccccc12.O=C(O)C(=O)O", "units_text": "%", "endpoint_result": 83}
{"compound": "CCCOc1ccc2[nH]cc(C3=CCNCC3)c2n1.Cl", "units_text": "%", "endpoint_result": 50}
{"compound": "CN(C)C(=O)Cn1cc(-c2ccc(-c3cncc4ccccc34)cc2)cn1", "units_text": "%", "endpoint_result": 65}
{"compound": "O=C1[C@H](Cc2ccc(O)cc2)N2C(=O)CCN(C(=O)NCc3ccccc3)[C@H]2CN1Cc1cccc2ccccc12", "units_text": "%", "endpoint_result": 94}
{"compound": "CC(C)(C)c1cc(NC(=O)Nc2ccc(-c3cn4c(n3)sc3cc(OCCN5CCOCC5)ccc34)cc2)no1", "units_text": "%", "endpoint_result": 63}
{"compound": "N#Cc1c(Oc2cccc(OS(=O)(=O)CCCC(F)(F)F)c2)cccc1C(F)(F)F", "units_text": "%", "endpoint_result": 66}
{"compound": "CC(/C=C1\\SC(=S)N(CCCC(=O)Nc2ccc(C(=O)O)c(O)c2)C1=O)=C\\c1ccccc1", "units_text": "%", "endpoint_result": 34}
{"compound": "CCCCC(=O)N(Cc1ccc(-c2ccccc2-c2nnn[nH]2)cc1)[C@H](C(=O)O)C(C)C", "units_text": "%", "endpoint_result": 19}
{"compound": "CC(=O)Nc1cccc2c1c(Sc1ccc(Cl)cc1)c(C)n2CC(=O)O", "units_text": "%", "endpoint_result": 28}
{"compound": "CC(C)COc1ccc(CNC(=O)N(Cc2ccc(F)cc2)C2CCN(C)CC2)cc1", "units_text": "%", "endpoint_result": 94}
{"compound": "Cl.N=C(N)NC(=O)Cc1c(Cl)cccc1Cl [GUANFACINE HYDROCHLORIDE]", "units_text": "%", "endpoint_result": 48}
{"compound": "Cc1noc(-c2ccc(-c3ccc(CC(=O)O)cc3)cc2)c1NC(=O)O[C@H](C)c1ccccc1Cl", "units_text": "%", "endpoint_result": 58}
{"compound": "N#Cc1cc(F)cc(-c2nc(-c3ccc(F)cn3)no2)c1", "units_text": "%", "endpoint_result": 34}
{"compound": "CN1CCN(c2cc(-c3ccccc3)nc(N)n2)CC1", "units_text": "%", "endpoint_result": 32}
{"compound": "CC[C@@H](C)Nc1nc(C)nc2c(-c3ccc(OC)nc3C)c(C)nn12", "units_text": "%", "endpoint_result": 46}
{"compound": "COc1cccc2c1c(NS(=O)(=O)c1ccc(Cl)s1)nn2Cc1cccc(CNC(=O)C(C)(C)O)c1", "units_text": "%", "endpoint_result": 34}
{"compound": "Cc1onc(-c2ccccc2Cl)c1C(=O)N(C)c1ccc(Cl)cc1", "units_text": "%", "endpoint_result": 32}
{"compound": "Cc1cccc(NC(=O)CN2CCC(c3ccccn3)CC2)c1.Cl.Cl", "units_text": "%", "endpoint_result": 60}
{"compound": "Cc1cnc(-c2cc(N3CCN(C(=O)CCS(C)(=O)=O)CC3)ncc2Cl)c(C)c1", "units_text": "%", "endpoint_result": 29}
{"compound": "Cc1c(CC(=O)O)c2cccnc2n1Cc1ccc(S(C)(=O)=O)cc1C(F)(F)F", "units_text": "%", "endpoint_result": 31}
